Assay: Cytotoxicity against human Caco-2 cells assessed as cell growth inhibition measured after 24 hrs by MTT assay
Type: toxicity, cell-based
reportedEndpoint: IC50 at 24 h (µM)
Kindly answer with a numeric value in µM, unit omitted.

What value of measured IC50 at 24 h is listed for C=C1[C@@]2(C)C[C@H]3[C@@]4(C)C(=CC[C@]3(C)[C@]1(C(=O)OC)C(=O)[C@@](C)(O)C2=O)C(C)(C)C(=O)C[C@H]4O ?
10.5

----------
Molecular target: Tyrosine-protein kinase JAK3 (Homo sapiens, UniProt P52333)
Sequence (P52333 whole entry): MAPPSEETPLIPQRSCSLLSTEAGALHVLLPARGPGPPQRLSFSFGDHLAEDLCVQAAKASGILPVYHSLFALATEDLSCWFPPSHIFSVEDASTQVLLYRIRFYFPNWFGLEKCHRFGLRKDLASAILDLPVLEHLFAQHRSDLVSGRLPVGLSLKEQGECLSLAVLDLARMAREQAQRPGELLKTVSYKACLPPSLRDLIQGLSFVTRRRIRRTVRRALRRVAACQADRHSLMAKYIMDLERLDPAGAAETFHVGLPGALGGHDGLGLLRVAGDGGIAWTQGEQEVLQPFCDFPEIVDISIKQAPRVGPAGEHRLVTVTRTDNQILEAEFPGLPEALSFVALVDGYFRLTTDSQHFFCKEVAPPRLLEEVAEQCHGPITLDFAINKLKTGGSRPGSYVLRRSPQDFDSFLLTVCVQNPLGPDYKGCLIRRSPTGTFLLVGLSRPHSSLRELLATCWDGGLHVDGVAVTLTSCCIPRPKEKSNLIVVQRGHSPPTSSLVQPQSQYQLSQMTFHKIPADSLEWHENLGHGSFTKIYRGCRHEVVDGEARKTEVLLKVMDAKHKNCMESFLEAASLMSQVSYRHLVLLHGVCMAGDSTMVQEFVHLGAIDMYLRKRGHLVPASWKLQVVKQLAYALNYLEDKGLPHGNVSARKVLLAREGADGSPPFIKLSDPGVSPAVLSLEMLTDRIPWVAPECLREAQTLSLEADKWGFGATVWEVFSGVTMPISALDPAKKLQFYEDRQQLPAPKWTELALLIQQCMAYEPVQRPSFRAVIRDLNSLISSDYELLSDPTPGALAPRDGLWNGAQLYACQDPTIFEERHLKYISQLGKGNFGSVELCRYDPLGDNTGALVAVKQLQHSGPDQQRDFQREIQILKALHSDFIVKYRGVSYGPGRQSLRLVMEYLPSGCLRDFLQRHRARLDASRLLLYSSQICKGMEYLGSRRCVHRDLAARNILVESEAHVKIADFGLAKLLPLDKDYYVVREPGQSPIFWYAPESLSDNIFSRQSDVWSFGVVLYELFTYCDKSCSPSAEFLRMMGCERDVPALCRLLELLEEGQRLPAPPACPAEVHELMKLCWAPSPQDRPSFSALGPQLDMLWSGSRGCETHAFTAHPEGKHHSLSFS
reportedEndpoint: IC50

What value of measured IC50 is listed for CO[C@H]1OC(=O)[C@@]2(CC(=O)c3cc(O)ccc3O)C[C@@H]3[C@@H](CCC4=C[C@@H](c5cc(O)ccc5O)OC4=O)C(C=O)=CO[C@@H]3[C@@]12C (racemic) ?
< 10 µM

----------
Molecular target: Beta-secretase 1 (Homo sapiens, UniProt P56817)
Sequence (P56817 whole entry): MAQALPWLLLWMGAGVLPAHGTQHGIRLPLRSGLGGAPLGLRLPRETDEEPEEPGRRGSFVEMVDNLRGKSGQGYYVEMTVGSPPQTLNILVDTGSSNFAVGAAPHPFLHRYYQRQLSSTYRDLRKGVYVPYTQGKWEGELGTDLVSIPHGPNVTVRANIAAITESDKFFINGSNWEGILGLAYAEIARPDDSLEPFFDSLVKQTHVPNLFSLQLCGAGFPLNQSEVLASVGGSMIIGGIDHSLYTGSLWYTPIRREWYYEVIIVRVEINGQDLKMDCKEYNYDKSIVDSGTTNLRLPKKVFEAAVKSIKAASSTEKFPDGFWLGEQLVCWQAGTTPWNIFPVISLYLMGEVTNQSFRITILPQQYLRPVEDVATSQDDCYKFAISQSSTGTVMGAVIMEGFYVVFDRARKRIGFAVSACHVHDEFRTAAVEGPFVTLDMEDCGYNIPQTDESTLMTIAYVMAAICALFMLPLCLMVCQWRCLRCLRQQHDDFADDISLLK
reportedEndpoint: IC50 (nM)
Kindly answer with a numeric value in nM, unit omitted.

Please provide the recorded IC50 for C=C1[C@@]23C(=O)O[C@H](C)[C@@]2(O)C(=O)O[C@]1(C)[C@@H](O)C1=C2CO[C@H]4CC(=O)OC(C)(C)[C@@]24CC[C@@]13C , tested on Beta-secretase 1 (Homo sapiens, UniProt P56817).
78
